Biological target: Bromodomain-containing protein 4 (Homo sapiens)
Test: Inhibition of human recombinant BRD4 BD1 (42 to 167 residues) extracted from Escherichia coli BL21 (DE3) at 10 uM incubated for 2 hrs by TR-FRET assay relative to control
Activity calls are given as the source filed them. The rule behind the calls is not given here.
Metric: inhibition

Recorded results for 4 compounds are shown here.
{"Compound": "COc1cc(OC)c2c(=O)[nH]c(CC(C)c3ccc(C(C)(C)C)cc3)nc2c1 (centres undefined)", "Metric": "inhibition", "Result": "54%"}
{"Compound": "COc1cc(OC)c2c(=O)[nH]c(C(=O)c3cc(F)ccc3F)nc2c1", "Metric": "inhibition", "Result": "10%"}
{"Compound": "COc1cc(C(=O)c2nc3ccccc3c(=O)[nH]2)cc(OC)c1OC", "Metric": "inhibition", "Result": "22%"}
{"Compound": "COc1cc(OC)c2c(=O)[nH]c(/C=C/c3ccc(N(C)C)cc3)nc2c1", "Metric": "inhibition", "Result": "24%"}

Task item: Annotate the compound COc1cc(OC)c2c(=O)[nH]c(C(=O)c3cccc(C#N)c3)nc2c1 with its measured inhibition.
Reply: 12%

Task item: Annotate the compound COc1cccc(/C=C/c2nc3cc(OC)cc(OC)c3c(=O)[nH]2)c1 with its measured inhibition.
Reply: inactive

Task item: Annotate the compound COc1ccc(/C=C/c2nc3cc(OC)cc(OC)c3c(=O)[nH]2)cc1 with its measured inhibition.
Reply: 81%

Task item: Annotate the compound COc1cc(OC)c2c(=O)[nH]c(/C(C)=C/c3ccccc3)nc2c1 with its measured inhibition.
Reply: 20%

Task item: Annotate the compound COc1cc(OC)c2c(=O)[nH]c(C(=O)c3cc(OC)c(OC)c(OC)c3)nc2c1 with its measured inhibition.
Reply: 11%

Task item: Annotate the compound COc1ccc(C(=O)c2nc3cc(OC)c(I)c(OC)c3c(=O)[nH]2)cc1 with its measured inhibition.
Reply: 10%

Task item: Annotate the compound COc1cc(OC)c2c(=O)[nH]c(C(=O)c3ccc(OCCO)cc3)nc2c1 with its measured inhibition.
Reply: 1.3%

Task item: Annotate the compound COc1cc(OC)c2c(=O)[nH]c(C=C(c3ccccc3)c3ccccc3)nc2c1 with its measured inhibition.
Reply: 3.1%

Task item: Annotate the compound COc1ccc(C(=O)c2nc3cc(OC)cc(OC)c3c(=O)[nH]2)cc1 with its measured inhibition.
Reply: inactive

Task item: Annotate the compound O=C(c1ccc(O)cc1)c1nc2ccccc2c(=O)[nH]1 with its measured inhibition.
Reply: 17%

Task item: Annotate the compound COc1cc(OC)c2c(=O)[nH]c(/C=C/c3ccc(Cl)cc3)nc2c1 with its measured inhibition.
Reply: 23%

Task item: Annotate the compound COc1cc(OC)c2c(=O)[nH]c(/C=C/c3cc(OC)c(O)c(OC)c3)nc2c1 with its measured inhibition.
Reply: 13%

Task item: Annotate the compound COc1cc(OC)c2c(=O)[nH]c(C(=O)c3ccc(OC)c(OC)c3)nc2c1 with its measured inhibition.
Reply: 13%

Task item: Annotate the compound COc1cc(OC)c2c(=O)[nH]c(C(=O)c3cccc(C(F)(F)F)c3)nc2c1 with its measured inhibition.
Reply: 13%

Task item: Annotate the compound COc1cc(OC)c2c(=O)[nH]c(C(=O)c3ccc(F)cc3)nc2c1 with its measured inhibition.
Reply: inactive
